- procedure_summary: reduced viability of yeast carrying PfHsp90 – S. cerevisiae, BacTiter-Glo luminescence, antimalarial PfHsp90 inhibitor project, primary screen (AID 504594);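 further: 0% = DMSO neutral control wells and 100% = 20 µM radicicol control wells; higher value means stronger growth inhibition because the sign is flipped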
- details: S. cerevisiae expressing PfHsp90, BacTiter-Glo growth, 48 h; at 9.4 µM; hits give high values
The whole screen tested about 2,000 compounds, of which fewer than 10 were called active. The list is a sample of the results.
Task for the reader: assign each of the following molecules its reported growth inhibition.

The examples below pair each entry with its known result.
INSERT INTO assay_data (molecule, property_measured, readout_value) VALUES
  ('Clc1ccc(CSC(Cn2ccnc2)c2ccc(Cl)cc2Cl)cc1 (centres undefined)', 'growth inhibition', '95% (active)'),
  ('O=C1NC(=O)C2(Cc3ccccc3N3CCCC32)C(=O)N1c1ccc(Cl)cc1 (centres undefined)', 'growth inhibition', '-0.293% (inactive)'),
  ('CN1CCN(C(=O)OC2c3nccnc3C(=O)N2c2ccc(Cl)cn2)CC1 (centres undefined)', 'growth inhibition', '6.28% (inactive)');

Provide each entry's growth inhibition from the list below.
1. Cn1c(O)c(C=NCCc2c[nH]c3ccccc23)c(=O)n(C)c1=O
2. CC(C)(C)C(O)C(Oc1ccc(Cl)cc1)n1cncn1 (centres undefined)
3. c1ccc(Cn2ccnc2)cc1

1. -4.75% (inactive)
2. 96.5% (active)
3. -14.6% (inactive)

====

Task for the reader: assign each of the following compounds its reported growth inhibition.
- procedure_summary: reduced viability of yeast carrying PfHsp90 – S. cerevisiae, BacTiter-Glo luminescence, antimalarial PfHsp90 inhibitor project, primary screen (AID 504594);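 further: 0% = DMSO neutral control wells and 100% = 20 µM radicicol control wells; higher value means stronger growth inhibition because the sign is flipped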
- details: S. cerevisiae expressing PfHsp90, BacTiter-Glo growth, 48 h; at 9.4 µM; hits give high values
Among all 2,000 compounds or so, fewer than 10 were called active. Not all results are given here.
Answers are plain numbers, in %.

Hello, I would appreciate it if you could give growth inhibition for each entry below.
1. C[N+]1(C)CCN(c2ccccc2)CC1
2. O=S(=O)(c1ccc(F)cc1)N1CCCCC1c1cccnc1 (stereo not drawn)

1: 4.14; 2: -1.69

Param item = `CCOc1ccc(N2C(=O)NC(=O)/C(=C\c3cc(OC)c(OC)cc3[N+](=O)[O-])C2=O)cc1` ; retrieve measured growth inhibition.
-0.939

FYI, the data here is from PubChem BioAssay AID504594.
